conditions: in n-butanol, 283.15 K
METRIC: solubility (mole fraction)
Numbers only.

Entry under test: O=Cc1ccc(O)cc1 . Its solubility (mole fraction) was 0.0692

====

settings: in isopropanol, 303.15 K
METRIC: solubility (mole fraction)
One number for each entry.

Per the records, this compound ( O=Cc1ccc(O)cc1 ) has solubility (mole fraction) equal to 0.164

====

details: in 1,4-dioxane, 298.15 K
METRIC: solubility (mole fraction)
Give bare numbers.

Item: O=Cc1ccc(O)cc1 | solubility (mole fraction): 0.123

====

conditions: in acetonitrile, 290.65 K
METRIC: solubility (mole fraction)
Numbers only.

Consider O=Cc1ccc(O)cc1 . Its measured solubility (mole fraction) is 0.0567

Source listed as BigSolDB 2.1.
